system: Foxtail, Giant (giant foxtail, Setaria faberi); test: Test A postemergence, Foxtail, Giant; assay type: in vivo; settings: Postemergence, 125 g ai/ha; 0 to 100 scale (0 no effect, 100 complete control)
In this section we review reported Plant response rating, Foxtail, Giant values for a set of compounds.
Enter the number alone.

>>> value_reported("CSC(=O)N(c1cc(C2=NOC3(CCCC3)C2)c(C)cc1C)S(=O)(=O)C(F)(F)F")
0
>>> value_reported("C#CCN(CC#C)C(=O)c1cc(NS(=O)(=O)C(F)(F)F)c(C)cc1C")
80
>>> value_reported("Cc1cc(C)c(C(=O)N2CCC(F)(F)C2)cc1NS(=O)(=O)C(F)(F)F")
0

Observed Plant response rating, Foxtail, Giant on Foxtail, Giant (giant foxtail, Setaria faberi) for Cc1cc(C(F)(F)F)c(C(=O)N2CCCCC2)cc1NS(=O)(=O)C(F)(F)F , please.
10

Lab note: need Plant response rating, Foxtail, Giant for Cc1cc(Cl)c(NS(=O)(=O)C(F)(F)F)cc1C(=O)N1CCOCC1(C)C on Foxtail, Giant (giant foxtail, Setaria faberi), anyone have it?
20

What Plant response rating, Foxtail, Giant appears in the records for this compound with Foxtail, Giant (giant foxtail, Setaria faberi)? Cc1cc(C)c(N(S(=O)(=O)C(F)(F)F)S(=O)(=O)C(F)(F)F)cc1N1CCC2(CCCC2)C1=O
0

Item Cc1cc(Cl)c(C(=O)N(C)C)cc1NS(=O)(=O)C(F)(F)F with Foxtail, Giant (giant foxtail, Setaria faberi) - Plant response rating, Foxtail, Giant?
10

Requested read-out Plant response rating, Foxtail, Giant, target or system Foxtail, Giant (giant foxtail, Setaria faberi), entry Cc1cc(C)c(C2=NOC3(C2)CC(C)CC(C)C3)cc1NS(=O)(=O)C(F)(F)F (single isomer, unassigned) [Compound 167]
10
